Target: t-PA (Homo sapiens)
Construct: purchased American Diagnostica, Greenwich, Conn
Test: Serine protease selectivity, chromogenic substrate (Kass), t-PA
Format: biochemical
Settings: substrate H-D-Ile-Pro-Arg-p-nitroanilide
readout name: Enzyme Kass, t-PA (L/mol × 10^6)

These solved cases illustrate the format of a correct answer.
CC(=O)Nc1ccc(O[C@H]2C[C@@H](C(=O)N[C@H](C=O)CCCNC(=N)N)N(C(=O)[C@H]3CCCCN3)C2)cc1.Cl.Cl (relative stereo) [Example 10]    0.027
C[C@H]1C[C@@H](C(=O)N[C@H](C=O)CCCNC(=N)N)N(C(=O)[C@H]2CCCCN2)C1.Cl.Cl (relative stereo) [Example 1]    0.077

1 = CCS(=O)(=O)N[C@@H](C(=O)N1[C@H](C(=O)N[C@H](C=O)CCCNC(=N)N)C[C@@H]2CCCC[C@@H]21)c1ccccc1.Cl (relative stereo) [Example 22, EtSO2 -D-Phg-cis-Ohi-ArgH.HCl]
2 = Cl.Cl.N=C(N)NCCC[C@@H](C=O)NC(=O)[C@@H]1C[C@H](Oc2cccc(C(=O)O)c2)CN1C(=O)[C@H]1CCCCN1 (relative stereo) [Example 19]
3 = CCS(=O)(=O)N[C@H](Cc1ccccc1)C(=O)N1[C@H](C(=O)N[C@H](C=O)CCCNC(=N)N)C[C@@H]2CCCC[C@@H]21.Cl (relative stereo) [Example 23, EtSO2 -D-Phe-cis-Ohi-ArgH.HCl]
q: Returns the items ordered by Enzyme Kass, t-PA, from maximum to minimum. Give me the labels in the order the question wants.
a: 3, 1, 2
(3: 2.07 L/mol × 10^6, 1: 0.085 L/mol × 10^6, 2: 0.022 L/mol × 10^6)

###

Molecular target: t-PA (Homo sapiens, UniProt P00750)
Construct: purchased American Diagnostica, Greenwich, Conn
Sequence (P00750 36-562): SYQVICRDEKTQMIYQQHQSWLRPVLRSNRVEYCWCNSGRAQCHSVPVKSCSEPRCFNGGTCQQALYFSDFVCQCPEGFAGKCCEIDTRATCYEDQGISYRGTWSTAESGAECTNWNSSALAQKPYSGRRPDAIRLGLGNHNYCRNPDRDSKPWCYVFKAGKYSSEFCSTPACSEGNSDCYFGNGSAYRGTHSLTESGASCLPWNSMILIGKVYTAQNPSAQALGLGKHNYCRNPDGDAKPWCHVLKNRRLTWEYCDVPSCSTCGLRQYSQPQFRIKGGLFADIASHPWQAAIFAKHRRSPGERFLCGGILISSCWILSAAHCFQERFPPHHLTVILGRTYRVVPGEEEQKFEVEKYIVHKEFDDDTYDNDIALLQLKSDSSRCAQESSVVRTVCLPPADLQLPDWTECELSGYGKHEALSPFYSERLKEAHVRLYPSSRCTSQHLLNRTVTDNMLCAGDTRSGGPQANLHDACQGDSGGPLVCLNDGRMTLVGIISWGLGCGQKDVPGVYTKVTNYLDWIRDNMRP
Assay: Serine protease selectivity, chromogenic substrate (Kass), t-PA
Format: biochemical
Conditions: substrate H-D-Ile-Pro-Arg-p-nitroanilide
readout name: Enzyme Kass, t-PA (L/mol × 10^6)

Cl.N=C(N)NCCC[C@@H](C=O)NC(=O)[C@@H]1C[C@@H]2CCCC[C@@H]2N1C(=O)[C@@H](Cc1ccccc1)NCC(=O)O (relative stereo) [Example 24, HOOCCH2 -D-Phe-cis-Ohi-ArgH.HCl]    0.075

A = CCC[C@H]1C[C@@H](C(=O)N[C@H](C=O)CCCNC(=N)N)N(C(=O)[C@H]2CCCCN2)C1.Cl.Cl (relative stereo) [Example 3, D-hPro-Pro(4-cis-n-propyl)-ArgH.2 HCl]
B = Cl.Cl.N=C(N)NCCC[C@@H](C=O)NC(=O)[C@@H]1C[C@H](Cc2ccccc2)CN1C(=O)[C@H]1CCCCN1 (relative stereo) [Example 5, D-hPro-Pro(4-cis-benzyl)-ArgH.2 HCl]
C = Cl.Cl.NC(N)=NCCCC(C=O)NC(=O)C1CC(Oc2ccccc2)CN1C(=O)C1NCCC2CCCCC21 [Example 14, L-1-Piq-Pro(4-cis-phenoxy)-ArgH.2 HCl]
q: In this exercise, place the 3 molecules in ascending sequence of their recorded Enzyme Kass, t-PA. Give me the labels in the order the question wants.
a: C, B, A
(C: 0.002 L/mol × 10^6, B: 0.057 L/mol × 10^6, A: 0.14 L/mol × 10^6)

###

Target: factor Xa (Homo sapiens)
Construct: Human factors X, Xa, IXa, XIa, and XIIa are purchased; purchased Enzyme Research Laboratories, South Bend, Ind
Assay: Serine protease selectivity, chromogenic substrate (Kass), factor Xa
Assay type: biochemical
Details: substrate N-Benzoyl-Ile-Glu-Gly-Arg-p-nitroanilide
readout name: Enzyme Kass, Xa (L/mol × 10^6)

These solved cases illustrate the format of a correct answer.
CC(=O)Nc1cccc(O[C@H]2C[C@@H](C(=O)N[C@H](C=O)CCCNC(=N)N)N(C(=O)[C@H]3CCCCN3)C2)c1.Cl.Cl (relative stereo)    1.2
Cl.N=C(N)NCCC[C@@H](C=O)NC(=O)[C@@H]1C[C@@H]2CCCC[C@@H]2N1C(=O)[C@@H](Cc1ccccc1)NCC(=O)O (relative stereo) [Example 24, HOOCCH2 -D-Phe-cis-Ohi-ArgH.HCl]    1.70
Cl.Cl.N=C(N)NCCC[C@@H](C=O)NC(=O)[C@@H]1C[C@H](c2ccccc2)CN1C(=O)[C@H]1CCCCN1 (relative stereo) [Example 6, D-hPro-Pro(4-cis-phenyl)-ArgH.2 HCl]    5.7

P = Cl.Cl.N=C(N)NCCC[C@@H](C=O)NC(=O)[C@@H]1CC2CCCCC2N1C(=O)[C@H]1CCCCN1 (relative stereo)
Q = Cl.Cl.N=C(N)NCCC[C@@H](C=O)NC(=O)[C@@H]1C[C@H](Oc2ccc(C(=O)O)cc2)CN1C(=O)[C@H]1CCCCN1 (relative stereo)
q: In the pair P and Q , the larger recorded Enzyme Kass, Xa belongs to which? Identify your selection by its label.
a: P
(P: 1.6 L/mol × 10^6, Q: 0.58 L/mol × 10^6)

###

Target: Trypsin (Bos taurus)
Construct: Bovine trypsin is purchased; purchased Worthington Biochemicals, Freehold, N.J
Sequence (P00760 24-246): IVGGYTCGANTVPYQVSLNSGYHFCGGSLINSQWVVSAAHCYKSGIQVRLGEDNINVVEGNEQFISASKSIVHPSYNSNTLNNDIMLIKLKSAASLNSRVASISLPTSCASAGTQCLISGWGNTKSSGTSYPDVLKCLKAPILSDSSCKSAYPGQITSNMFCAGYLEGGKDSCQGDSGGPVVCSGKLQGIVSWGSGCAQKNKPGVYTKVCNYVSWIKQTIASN
Experiment: Serine protease selectivity, chromogenic substrate (Kass), trypsin
Assay type: biochemical, bovine
Conditions: substrate N-Benzoyl-Phe-Val-Arg-p-nitroanilide
Method: The assay is carried out by mixing 50 μL buffer (0.03M Tris, 0.15M NaCl, pH 7.4) with 25 μL of bovine thrombin or human thrombin solution (0.21 mg/mL of thrombostat bovine thrombin, Parke-Davis, or purified human thrombin, Enzyme Research Laboratories, South Bend, Ind., at about 8 NIH units/mL, in the same buffer) and 25 μL of test compound in a solvent (in 50% aqueous methanol, v:v). […]
readout name: Enzyme Kass, Trypsin (L/mol × 10^6)

P = CCC[C@H]1C[C@@H](C(=O)N[C@H](C=O)CCCNC(=N)N)N(C(=O)[C@H]2CCCCN2)C1.Cl.Cl (relative stereo) [Example 3, D-hPro-Pro(4-cis-n-propyl)-ArgH.2 HCl]
Q = Cl.Cl.N=C(N)NCCC[C@@H](C=O)NC(=O)[C@@H]1C[C@H](Oc2ccc(C(=O)O)cc2)CN1C(=O)[C@H]1CCCCN1 (relative stereo) [Example 18]
R = Cl.Cl.NC(N)=NCCCC(C=O)NC(=O)C1CC(Oc2ccccc2)CN1C(=O)C1NCCC2CCCCC21 [Example 14, L-1-Piq-Pro(4-cis-phenoxy)-ArgH.2 HCl]
q: From the items above, give an ordering by Enzyme Kass, Trypsin that starts at the lowest reported number. Give me the labels in the order the question wants.
a: R, Q, P

###

Biological target: factor Xa (Homo sapiens, UniProt P00742)
Construct: Human factors X, Xa, IXa, XIa, and XIIa are purchased; purchased Enzyme Research Laboratories, South Bend, Ind
Sequence (P00742 235-488 limits assumed): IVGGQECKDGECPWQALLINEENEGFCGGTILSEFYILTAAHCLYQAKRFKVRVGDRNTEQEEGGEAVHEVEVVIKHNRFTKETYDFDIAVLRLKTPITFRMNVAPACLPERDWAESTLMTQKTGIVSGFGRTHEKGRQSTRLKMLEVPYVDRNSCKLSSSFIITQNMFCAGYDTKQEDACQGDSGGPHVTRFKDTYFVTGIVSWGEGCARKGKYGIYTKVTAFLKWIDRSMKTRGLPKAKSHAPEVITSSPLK
Sequence (P00742 41-179 partner limits assumed): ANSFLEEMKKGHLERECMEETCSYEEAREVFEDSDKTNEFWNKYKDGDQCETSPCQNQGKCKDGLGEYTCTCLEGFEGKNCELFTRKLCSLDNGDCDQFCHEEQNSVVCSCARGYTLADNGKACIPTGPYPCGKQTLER
Assay: Serine protease selectivity, chromogenic substrate (Kass), factor Xa
Type: biochemical
Conditions: substrate N-Benzoyl-Ile-Glu-Gly-Arg-p-nitroanilide
readout name: Enzyme Kass, Xa (L/mol × 10^6)

CCS(=O)(=O)N[C@@H](C(=O)N1[C@H](C(=O)N[C@H](C=O)CCCNC(=N)N)C[C@@H]2CCCC[C@@H]21)c1ccccc1.Cl (relative stereo) [Example 22, EtSO2 -D-Phg-cis-Ohi-ArgH.HCl]    11.8
C[C@H]1C[C@@H](C(=O)N[C@H](C=O)CCCNC(=N)N)N(C(=O)[C@H]2CCCCN2)C1.Cl.Cl (relative stereo)    1.4
Cl.Cl.Cl.N=C(N)NCCC[C@@H](C=O)NC(=O)[C@@H]1C[C@H](Oc2ccc(N)cc2)CN1C(=O)[C@H]1CCCCN1 (relative stereo)    0.66
Cl.Cl.N=C(N)NCCCC(C=O)NC(=O)C1CC2CCCCC2N1C(=O)C1CC2CCCCC2CN1 [Example 25, D-3-cis-Piq-cis-Ohi-ArgH.2 HCl]    0.67
Cl.Cl.N=C(N)NCCC[C@@H](C=O)NC(=O)[C@@H]1C[C@H](Cc2ccccc2)CN1C(=O)[C@H]1CCCCN1 (relative stereo) [Example 5, D-hPro-Pro(4-cis-benzyl)-ArgH.2 HCl]    5.8

a = Cl.Cl.Cl.N=C(N)NCCC[C@@H](C=O)NC(=O)[C@@H]1C[C@H](Oc2cccnc2)CN1C(=O)[C@H]1CCCCN1 (relative stereo)
b = Cl.Cl.N=C(N)NCCC[C@@H](C=O)NC(=O)[C@@H]1C[C@H](Oc2ccccc2)CN1C(=O)C1NCCC2CCCCC21 (relative stereo) [Example 15, D-1-Piq-Pro(4-cis-phenoxy)-ArgH.2 HCl]
q: In the pair a and b , the larger recorded Enzyme Kass, Xa belongs to which? Identify your selection by its label.
a: b

I = CCS(=O)(=O)N[C@H](C(=O)N1C[C@@H](Oc2ccccc2)C[C@H]1C(=O)N[C@H](C=O)CCCNC(=N)N)c1ccccc1.Cl (relative stereo) [Example 16, EtSO2 -L-Phg-Pro(4-cis-phenoxy)-ArgH.HCl]
II = CC(=O)Nc1ccc(O[C@H]2C[C@@H](C(=O)N[C@H](C=O)CCCNC(=N)N)N(C(=O)[C@H]3CCCCN3)C2)cc1.Cl.Cl (relative stereo)
q: In the pair I and II , the larger recorded Enzyme Kass, Xa belongs to which? Identify your selection by its label.
a: I
(I: 6.8 L/mol × 10^6, II: 0.59 L/mol × 10^6)
